biological target: human GPRC5D (human, UniProt Q9NZD1 1-345); assay: cell-based or functional assay
Sequence (Q9NZD1 whole entry): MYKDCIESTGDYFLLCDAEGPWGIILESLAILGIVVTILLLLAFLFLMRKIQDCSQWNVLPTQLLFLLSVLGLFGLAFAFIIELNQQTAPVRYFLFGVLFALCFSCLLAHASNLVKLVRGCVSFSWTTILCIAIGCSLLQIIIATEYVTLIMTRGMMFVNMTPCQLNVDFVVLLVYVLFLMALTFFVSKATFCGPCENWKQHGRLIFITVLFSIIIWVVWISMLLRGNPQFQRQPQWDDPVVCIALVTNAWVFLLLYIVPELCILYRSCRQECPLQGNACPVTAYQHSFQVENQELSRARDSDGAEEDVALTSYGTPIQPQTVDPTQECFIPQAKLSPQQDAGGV
Label Condition not met if CAR-J2 EC50 [ng/mL] (PGLALA-CAR-J activation, L363 target cells) falls below 40 ng/mL; label Condition met in every other case.

P1AE5755 (antibody, V domains shown, Humanized 5F11 IgG; PGLALA Fc implied by the CAR-J assay; also called 5F11_VH2b + 5F11_VL1a) VH: EVQLVESGGGLVQPGGSLRLSCAASGFSFSNYGMAWVRQAPGKGLEWVASISTGGGNTYYRDSVKGRFTISRDNAKNTLYLQMNSLRAEDTAVYYCTRHDRGGLYWGQGTMVTVSS VL: DIVMTQSPLSLPVTPGEPASISCRSSKSLLHSNGITYVYWYLQKPGQSPQVLIYRMSNLASGVPDRFSGSGSGTDFTLKISRVEAEDVGVYHCGQLLENPYTFGQGTKLEIK :: Condition met
P1AE5734 (antibody, V domains shown, Humanized 5F11 IgG; PGLALA Fc implied by the CAR-J assay; also called 5F11_VH1a + 5F11_VL1a) VH: QVQLVESGGGVVQPGRSLRLSCAASGFSFSNYGMAWVRQAPGKGLEWVASISTGGGNTYYRDSVKGRFTISRDNSKNTLYLQMNSLRAEDTAVYYCTRHDRGGLYWGQGTMVTVSS VL: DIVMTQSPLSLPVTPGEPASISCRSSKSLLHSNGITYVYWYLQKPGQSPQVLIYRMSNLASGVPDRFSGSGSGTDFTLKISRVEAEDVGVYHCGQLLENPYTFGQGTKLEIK :: Condition met
P1AE5757 (antibody, V domains shown, Humanized 5F11 IgG; PGLALA Fc implied by the CAR-J assay; also called 5F11_VH2b + 5F11_VL2a) VH: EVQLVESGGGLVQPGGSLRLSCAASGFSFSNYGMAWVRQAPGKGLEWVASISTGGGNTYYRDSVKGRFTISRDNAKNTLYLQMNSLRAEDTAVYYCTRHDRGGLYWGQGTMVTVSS VL: DIVMTQSPLSLPVTPGEPASISCRSSKSLLHSNGITYVYWYLQKPGQSPQLLIYRMSNRASGVPDRFSGSGSGTDFTLKISRVEAEDVGVYHCGQLLENPYTFGQGTKLEIK :: Condition met
P1AE5740 (antibody, V domains shown, Humanized 5F11 IgG; PGLALA Fc implied by the CAR-J assay; also called 5F11_VH1b + 5F11_VL1b) VH: EVQLVESGGGVVQPGRSLRLSCAASGFSFSNYGMAWVRQAPGKGLEWVASISTGGGNTYYRDSVKGRFTISRDNAKNTLYLQMNSLRAEDTAVYYCTRHDRGGLYWGQGTMVTVSS VL: DIVMTQSPLSLPVTPGEPASISCRSSKSLLHSNGITYVYWYLQKPGKSPQVLIYRMSNLASGVPDRFSGSGSGTDFTLKISRVEAEDVGVYHCGQLLENPYTFGQGTKLEIK :: Condition not met
P1AE5736 (antibody, V domains shown, Humanized 5F11 IgG; PGLALA Fc implied by the CAR-J assay; also called 5F11_VH1a + 5F11_VL2a) VH: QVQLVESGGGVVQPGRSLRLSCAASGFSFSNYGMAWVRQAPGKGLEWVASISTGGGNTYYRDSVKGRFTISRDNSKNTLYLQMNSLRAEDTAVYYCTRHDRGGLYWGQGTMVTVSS VL: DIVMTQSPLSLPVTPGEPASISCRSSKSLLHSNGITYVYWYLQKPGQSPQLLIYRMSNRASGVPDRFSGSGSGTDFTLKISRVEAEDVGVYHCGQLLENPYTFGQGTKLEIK :: Condition not met

Determine whether measured CAR-J2 EC50 [ng/mL] (PGLALA-CAR-J activation, L363 target cells) meets or exceeds 40 ng/mL for P1AE5744 (antibody, V domains shown, Humanized 5F11 IgG; PGLALA Fc implied by the CAR-J assay; also called 5F11_VH1c + 5F11_VL1a) VH: QVQLVESGGGVVQPGRSLRLSCAASGFSFSNYGMAWVRQAPGKGLEWVASISTGGGNTYYADSVKGRFTISRDNSKNTLYLQMNSLRAEDTAVYYCTRHDRGGLYWGQGTMVTVSS VL: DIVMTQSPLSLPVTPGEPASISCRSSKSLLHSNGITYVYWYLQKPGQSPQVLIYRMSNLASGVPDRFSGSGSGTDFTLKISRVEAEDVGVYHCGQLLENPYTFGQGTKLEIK
Condition not met

Would you mind doing P1AE5739 (antibody, V domains shown, Humanized 5F11 IgG; PGLALA Fc implied by the CAR-J assay; also called 5F11_VH1b + 5F11_VL1a) VH: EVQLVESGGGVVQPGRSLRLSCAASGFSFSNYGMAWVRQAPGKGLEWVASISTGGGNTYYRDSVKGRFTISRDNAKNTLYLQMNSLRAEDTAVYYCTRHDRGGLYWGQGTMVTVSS VL: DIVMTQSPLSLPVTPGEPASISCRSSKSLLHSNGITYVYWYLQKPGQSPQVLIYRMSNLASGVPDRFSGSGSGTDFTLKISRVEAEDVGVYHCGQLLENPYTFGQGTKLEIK as well?
Condition not met

Would you mind doing P1AE5754 (antibody, V domains shown, Humanized 5F11 IgG; PGLALA Fc implied by the CAR-J assay; also called 5F11_VH1d + 5F11_VL2c) VH: EVQLVESGGGVVQPGRSLRLSCAASGFSFSNYGMAWVRQAPGKGLEWVASISTGGGNTYYADSVKGRFTISRDNAKNTLYLQMNSLRAEDTAVYYCTRHDRGGLYWGQGTMVTVSS VL: EIVLTQSPGTLSLSPGERATLSCRASKSLLHSNGITYVYWYQQKPGQAPRLLIYRMSNLASGIPDRFSGSGSGTDFTLTISRLEPEDFAVYHCGQLLENPYTFGQGTKLEIK as well?
Condition not met

Would you mind doing P1AE5756 (antibody, V domains shown, Humanized 5F11 IgG; PGLALA Fc implied by the CAR-J assay; also called 5F11_VH2b + 5F11_VL1b) VH: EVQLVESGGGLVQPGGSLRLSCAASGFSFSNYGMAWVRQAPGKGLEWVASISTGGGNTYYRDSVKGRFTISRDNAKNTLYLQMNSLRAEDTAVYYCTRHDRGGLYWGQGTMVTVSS VL: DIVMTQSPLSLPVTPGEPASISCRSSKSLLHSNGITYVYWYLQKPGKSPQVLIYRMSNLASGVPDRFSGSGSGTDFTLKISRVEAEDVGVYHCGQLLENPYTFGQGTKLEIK as well?
Condition met

Would you mind doing P1AE5751 (antibody, V domains shown, Humanized 5F11 IgG; PGLALA Fc implied by the CAR-J assay; also called 5F11_VH1d + 5F11_VL1b) VH: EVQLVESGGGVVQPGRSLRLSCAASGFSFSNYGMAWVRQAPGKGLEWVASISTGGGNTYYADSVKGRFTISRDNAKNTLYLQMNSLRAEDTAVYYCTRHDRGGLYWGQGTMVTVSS VL: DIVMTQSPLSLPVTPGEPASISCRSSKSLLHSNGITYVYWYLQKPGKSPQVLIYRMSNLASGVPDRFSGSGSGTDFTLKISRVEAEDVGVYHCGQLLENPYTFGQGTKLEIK as well?
Condition not met
